# run description: soluble on expression in E. coli; label from the status in PepcDB or PDB records

[
  {
    "chain sequence": "MKHTLPDLPFDYADLEPVISHEIMQLHHQKHHATYVNNLNQIEEKLHEAVSKGNLKEAIALQPALKFNGGGHINHSIFWTNLAKDGGEPSKELMDTIKRDFGSLDNLQKRLSDITIAVQGSGWGWLGYCKKDKILKIATCANQDPLEGMVPLFGIDVWEHAYYLQYKNVRPDYVHAIWKIANWKNISERFANARQ",
    "soluble on expression in E. coli": "soluble"
  },
  {
    "chain sequence": "SELFTLGACRQVGKSCFVLKTSEGLVMLDCGLHPSYQDDRRYPNFSLAFSYGPLKAVFITHCHADHVGALPILTERWGYDGPIYMSEPTRKLSYYILEECVGSWGGDDEWTDSSRSEWSYTQREVESCLTKCIVGWLDMCWVLTCLASS",
    "soluble on expression in E. coli": "soluble"
  },
  {
    "chain sequence": "MSREANPFKKMPTILMPDELMAKALRRGEKVANEMRQKELPWLLKARFVEEHKVRTIASVVADNLQKVIDKTPPVRKLPKFYQEMVEVLVGIDDFKKSMGAFKWASELVRKLGNEYARKIRKARTPQQAGKLRKEFVGRVKSILEQIHPEMAFVAVAREKLKDLPTFKDLPTVVIAGYPNVGKSTLLKKLTGADVEINSYPFTTKGINVGYIGEIQMVDTPGLLDRPLYERNDIELQAILALNYLANLILFIIDASEFCGYTIEEQINLLKEIKDLFKAPIVVAINKIDLVDEERVKEIEEKLKEVGIEEILKISADKDIGLDELKERLKKIAIKEFLKDKDAENKELECLEHHHHHH",
    "soluble on expression in E. coli": "soluble"
  }
]

---

# run description: soluble on expression in E. coli; label from the status in PepcDB or PDB records
property name: soluble on expression in E. coli

// solved cases for soluble on expression in E. coli follow
[
  {
    "chain sequence": "MVRRLLALSRPLYWLYEKRLLREVKRGPMPRHLGLILDGNRRYARALGLSPTKGHEFGVQKAYEVLEWCLEMGIKTVTVWVFSTDNFKRPPEEVETLMNLFLREAERMAEDHRILEHQVRVRFIGRREGFSPEVVRAIERLERRTEGHRGMFLNIAMGYGGREEIVDAVKRLLLEAEARGLSPKEVAEGLTPEDIARHLYTAGLPDPDFIIRTSGEIRLSGFLLWQSAYSEFYFADVLWPEFRKIDFLRALRSYQARERRFGR",
    "soluble on expression in E. coli": "soluble"
  },
  {
    "chain sequence": "PIPAWASGNLLTQAIRQQYYKPIDVDRMYGTIDSPKLEELFNKS",
    "soluble on expression in E. coli": "soluble"
  },
  {
    "chain sequence": "MSLHKEYIQNYLNLTRNTGNLMLFAGDQKIEHLNEDFYGKDISKDDADPEHLFKIAENSKIGGFAVQFGLLSRYGRDHKDINYIVKLNSKTNLVDTNQKDPLSRALLDINDILEFKKNSGINIVGVGYTIYLGSEYESEMLSEASKIIYEAHKGGLVVILWIYPRGKAVKDEKDSELISGATGVAACLGADFVKVNYPKSENPAESFKEAVMAAGRTKVVCAGGSSTDIESFLKQLYEQIHISGASGNATGRNIHQKSLSDAVSMCNAIYAITIDGKTVSEALNIYNERKSEGHHHHHH",
    "soluble on expression in E. coli": "not soluble"
  },
  {
    "chain sequence": "GMTSRSPFESFVWQSEIFNCQSNDIDAFYAQLAEEVNRLGLKKNTLGSVDSFAINLYQSASQRSDLPSLLISSGFHGEEAAGPWGMLHFLRGLQPALFERVNLSLLPLVNPTGFKAGHRFNRFGENPNRGFTLENGKPTPNEHTSLEGKLLLEHAQLLCAASRDGILTCHEDVLMNETYVYSFEPTQTPGRFSLGLRDALGQYFKLAKDGFIDECPVTDGVIFNHFDTSFEAFLVRSGAKLAACSETPGQEDFDRRVQANSAAMGQFIAHCAPIL",
    "soluble on expression in E. coli": "soluble"
  },
  {
    "chain sequence": "MTAPFKDHFSTGSANYAAHRPTYPAQLVDELAALCPGTRLALDCGCGTGQLTVLLAERFERVVGTDASAAQIDKAQARERVEYRVALAEDSGLAAASADLVTVAQAAHWLDLPRFYEEVRRVARADAILALVTYGVLHVDGPMEPLVQHFYHQVVGPYWPAERRHVEEGYRNLPFPFEERRLPDLAIEVAWTLDELLGYVGTWSAVKEAGKALGQDPGAAFVDELREAWGDPQTRYRVSWPLTVRAGVIR",
    "soluble on expression in E. coli": "not soluble"
  },
  {
    "chain sequence": "MVSEEEEEEDGDAEETQDSEDDEEDEMEEDDDDSDYPEEMEDDDDDASYCTESSFRSHSTYSSTPGRRKPRVHRPRSPILEEKDIPPLEFPKSSEDLMVPNEHIMNVIAIYEVLRNFGTVLRLSPFRFEDFCAALVSQEQCTLMAEMHVVLLKAVLREEDTSNTTFGPADLKDSVNSTLYFIDGMTWPEVLRVYCES",
    "soluble on expression in E. coli": "not soluble"
  }
]

Please turn your attention to the following entry.
What does the record list as soluble on expression in E. coli for MGSDKIHHHHHHADGNDPVENSVSTYLLEKTYGARSVTYEENNSDKLKLSELPAISLSEADHILSVLRKHTDAQEELDIQTATKGEQTWLRIVMKQTIDHKYAFTIQLNMNCYNDGSLYYGGYQAECSSSLIKWYLKGFSLATDNATKNYKFESQSYIYMKVIDNGIKYMQIPVTINGNYNPQNHDAAFSYNL ?
not soluble
